# System name: T1, human PILRB, ectopically expressed on 293 cells (human, UniProt Q9UKJ0 20-227)
# T1 construct: also called hB
# T1 sequence (Q9UKJ0 20-227): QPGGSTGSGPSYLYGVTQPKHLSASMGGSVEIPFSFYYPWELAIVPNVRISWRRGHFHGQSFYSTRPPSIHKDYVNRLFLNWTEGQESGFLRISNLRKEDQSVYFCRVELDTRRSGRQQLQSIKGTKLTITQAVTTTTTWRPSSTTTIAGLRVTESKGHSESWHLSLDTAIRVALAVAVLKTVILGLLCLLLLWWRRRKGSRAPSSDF
# Method description: flow cytometry, 293 cells expressing target
Metric: binding result

* D4 (antibody, V domains shown, second hybridoma campaign) VH: QVQLQQSGADLARPGASVKLSCKASGYTFTSYGIAWMKQRTGQGLEWIGEIYPRSGNPYYNDRFKGKATLTADRSSNTTYMELRSLTSEDSAVYFCARWVGGIIDYWGQGTSVTVSS VL: DIVMTQSQKFMSTSIGDRVSVTCKASQNVGFNVAWYQQKPGQSPKPLIYSASYRYSGVPDRFTGSESGTEFTLIISNVQSEDLAEYFCQQYDSYPFTFGSGTNLEIK | no binding
* E20 (antibody, V domains shown, B-cell cloning campaign (mice)) VH: QIQLVQSGPELKKPGETVKISCKASGYTFTTYGMSWVKQAPGKGLKWMGWINTYSGVPTYADDFKGRFAFSLETSASTAYLQINNLKNEDTATYFCARYDGYLDYWGQGTTLTVSS VL: DIVLTQSPASLAVSLGQRATISCKASQSVDYDGDSYMNWYQQKPGQPPKLLIYAASNLESGIPARFSGSGSGTDFTLNIHPVEEEDAATYYCQQSNEDLTFGSGTKLEIK | no binding
* E6 (antibody, V domains shown, phage campaign) VH: QVQLVQSGAEVKKPGASVKVSCKASGGTFSSYAISWVRQAPGQGLEWMGWINPNSGGTNFAQKFQGRVTMTRDTSTSTVYMELSSLRSEDTAVYYCARGSGSYPLDYWGRGTLVTVSS VL: DIQMTQSPSSLSASVGDRVTITCRASQDISTWLAWYQQKPGKAPKLLIYDASSLESGVPSRFSGSGSGTDFTLTISSLQPEDFATYYCQQTYSAPYTFGQGTKLEIK | no binding
